# tested.on: PADI4 (Homo sapiens, UniProt Q9UM07)
# Construct: His6; made in house
# Sequence (Q9UM07 whole entry): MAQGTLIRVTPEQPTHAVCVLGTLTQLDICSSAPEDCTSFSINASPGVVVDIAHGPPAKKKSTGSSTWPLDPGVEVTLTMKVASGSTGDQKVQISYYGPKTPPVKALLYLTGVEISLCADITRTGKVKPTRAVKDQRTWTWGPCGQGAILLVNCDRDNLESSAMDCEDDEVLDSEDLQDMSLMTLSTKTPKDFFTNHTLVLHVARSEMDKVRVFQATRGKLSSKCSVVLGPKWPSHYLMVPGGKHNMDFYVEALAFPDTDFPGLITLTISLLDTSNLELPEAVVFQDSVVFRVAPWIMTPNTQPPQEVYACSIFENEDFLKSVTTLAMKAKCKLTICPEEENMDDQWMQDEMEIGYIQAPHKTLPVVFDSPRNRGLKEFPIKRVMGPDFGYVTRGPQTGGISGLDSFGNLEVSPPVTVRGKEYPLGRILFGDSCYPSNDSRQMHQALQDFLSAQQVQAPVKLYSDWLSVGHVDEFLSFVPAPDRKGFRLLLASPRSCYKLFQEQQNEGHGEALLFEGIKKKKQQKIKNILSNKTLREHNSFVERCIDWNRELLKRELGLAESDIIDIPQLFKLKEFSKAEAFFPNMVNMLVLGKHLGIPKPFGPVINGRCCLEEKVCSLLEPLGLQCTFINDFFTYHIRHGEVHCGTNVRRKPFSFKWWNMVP
# experiment.description: COLDER inhibition assay, BAEE substrate, with or without 1 h preincubation
# Format: biochemical
# condition: peptide 0.1 µM, T=0; read-out: PADI4 activity normalised to 0.1% DMSO
Where a SMILES comes first, the peptide text is derived from it. Bridges are numbered along the chain shown (N, C = ends). [ ]: non-standard residue; d: D form. Orn(fluoroacetimidoyl) = N=C(CF)NCCC[C@H](N)C(=O)O

{"compound": "CC(C)C[C@@H]1NC(=O)[C@H](CCCCN)NC(=O)[C@H](CO)NC(=O)[C@H](CO)NC(=O)[C@H](Cc2ccc(O)cc2)NC(=O)[C@H](Cc2c[nH]cn2)NC(=O)[C@H](CCCNC(=N)CF)NC(=O)[C@H](CC(=O)O)NC(=O)[C@H](CC(C)C)NC(=O)[C@@H](Cc2ccc(O)cc2)NC(=O)CSC[C@@H](C(=O)NCC(N)=O)NC(=O)[C@H](Cc2ccc(O)cc2)NC1=O [cP4_15, yLD(2)HYSSKLYCG] ({CH2CO}-[dY]LD[Orn(fluoroacetimidoyl)]HYSSKLYCG-NH2; thioether N-12)", "tested.on": "PADI4 (Homo sapiens, UniProt Q9UM07)", "result.units": "%", "remaining activity at 0.1 µM": 88.7}
{"compound": "N=C(N)NCCC[C@@H]1NC(=O)[C@H](Cc2ccc(O)cc2)NC(=O)[C@H](Cc2c[nH]cn2)NC(=O)[C@H](CCCNC(=N)CF)NC(=O)[C@H](CC(=O)O)NC(=O)[C@H](CCCNC(=N)N)NC(=O)[C@@H](Cc2ccc(O)cc2)NC(=O)CSC[C@@H](C(=O)NCC(N)=O)NC(=O)[C@H](Cc2ccc(O)cc2)NC(=O)[C@H](CCCCN)NC(=O)[C@@H]2CCCN2C(=O)[C@H](Cc2c[nH]cn2)NC1=O [PADI4_3_H4(2), yRD(2)HYRHPKYCG] ({CH2CO}-[dY]RD[Orn(fluoroacetimidoyl)]HYRHPKYCG-NH2; thioether N-12)", "tested.on": "PADI4 (Homo sapiens, UniProt Q9UM07)", "result.units": "%", "remaining activity at 0.1 µM": 101}
{"compound": "CC[C@H](C)[C@H](NC(=O)[C@H](Cc1c[nH]c2ccccc12)NC(=O)[C@H](CCC(=O)O)NC(=O)[C@@H]1CSCC(=O)N[C@H](Cc2ccc(O)cc2)C(=O)N[C@@H](C(C)C)C(=O)N[C@@H](Cc2ccc(O)cc2)C(=O)N[C@@H](CCCNC(=N)CF)C(=O)N[C@@H](CC(=O)O)C(=O)N1)C(=O)N[C@@H](CC(N)=O)C(=O)N[C@@H](CCCNC(=N)N)C(=O)N[C@@H](C)C(=O)NCC(N)=O [cP4_165, yVY(2)DCEWINRAG] ({CH2CO}-[dY]VY[Orn(fluoroacetimidoyl)]DCEWINRAG-NH2; thioether N-6)", "tested.on": "PADI4 (Homo sapiens, UniProt Q9UM07)", "result.units": "%", "remaining activity at 0.1 µM": 99.6}

====

# tested.on: PADI4 (Homo sapiens, UniProt Q9UM07)
# Construct: His6; made in house
# experiment.description: Incubation time-dependent COLDER assay IC50(t), Krippendorff fit
# Format: biochemical
# condition: Krippendorff fit of IC50 vs time
Where a SMILES comes first, the peptide text is derived from it. Bridges are numbered along the chain shown (N, C = ends). [ ]: non-standard residue; d: D form. Orn(fluoroacetimidoyl) = N=C(CF)NCCC[C@H](N)C(=O)O

{"molecule": "CC(C)[C@@H]1NC(=O)[C@@H](Cc2ccc(O)cc2)NC(=O)CSC[C@@H](C(=O)NCC(N)=O)NC(=O)[C@H](Cc2ccc(O)cc2)NC(=O)[C@H](CCCCN)NC(=O)[C@H](Cc2c[nH]c3ccccc23)NC(=O)[C@H](CCC(=O)O)NC(=O)[C@H](CCCCN)NC(=O)[C@H](CCCNC(=N)CF)NC(=O)[C@H](CO)NC(=O)[C@H](Cc2ccc(O)cc2)NC1=O [cP4_7, yVYS(2)KEWKYCG] ({CH2CO}-[dY]VYS[Orn(fluoroacetimidoyl)]KEWKYCG-NH2; thioether N-11)", "result.units": "nM", "Ki": 4300}
{"molecule": "N=C(N)NCCC[C@@H]1NC(=O)[C@H](CCCCN)NC(=O)[C@H](CC(N)=O)NC(=O)[C@H](Cc2ccccc2)NC(=O)[C@H](CC(=O)O)NC(=O)[C@H](Cc2c[nH]c3ccccc23)NC(=O)[C@H](CC(N)=O)NC(=O)[C@H](CCCNC(=N)CF)NC(=O)[C@H](Cc2ccc(O)cc2)NC(=O)[C@H](Cc2c[nH]c3ccccc23)NC(=O)[C@@H](Cc2ccc(O)cc2)NC(=O)CSC[C@@H](C(=O)NCC(N)=O)NC1=O [cP4_10, yWY(2)NWDFNKRCG] ({CH2CO}-[dY]WY[Orn(fluoroacetimidoyl)]NWDFNKRCG-NH2; thioether N-12)", "result.units": "nM", "Ki": 1500}
{"molecule": "N=C(N)NCCC[C@@H]1NC(=O)[C@H](CCCNC(=N)CF)NC(=O)[C@H](CC(=O)O)NC(=O)[C@H](Cc2ccc(O)cc2)NC(=O)[C@H](CCCCN)NC(=O)[C@H](CO)NC(=O)[C@@H](Cc2ccc(O)cc2)NC(=O)CSC[C@@H](C(=O)NCC(N)=O)NC(=O)[C@H](CC(=O)O)NC(=O)[C@H](CCCNC(=N)N)NC(=O)[C@@H]2CCCN2C(=O)[C@H](CO)NC1=O [cP4_4, ySKYD(2)RSPRDCG] ({CH2CO}-[dY]SKYD[Orn(fluoroacetimidoyl)]RSPRDCG-NH2; thioether N-12)", "result.units": "nM", "Ki": 1900}
{"molecule": "CC(C)C[C@@H]1NC(=O)[C@H](CCCCN)NC(=O)[C@H](CO)NC(=O)[C@H](CO)NC(=O)[C@H](Cc2ccc(O)cc2)NC(=O)[C@H](Cc2c[nH]cn2)NC(=O)[C@H](CCCNC(=N)CF)NC(=O)[C@H](CC(=O)O)NC(=O)[C@H](CC(C)C)NC(=O)[C@@H](Cc2ccc(O)cc2)NC(=O)CSC[C@@H](C(=O)NCC(N)=O)NC(=O)[C@H](Cc2ccc(O)cc2)NC1=O [cP4_15, yLD(2)HYSSKLYCG] ({CH2CO}-[dY]LD[Orn(fluoroacetimidoyl)]HYSSKLYCG-NH2; thioether N-12)", "result.units": "nM", "Ki": 780}
{"molecule": "N=C(N)NCCC[C@@H]1NC(=O)[C@H](Cc2ccc(O)cc2)NC(=O)[C@H](Cc2c[nH]cn2)NC(=O)[C@H](CCCNC(=N)CF)NC(=O)[C@H](CC(=O)O)NC(=O)[C@H](CCCNC(=N)N)NC(=O)[C@@H](Cc2ccc(O)cc2)NC(=O)CSC[C@@H](C(=O)NCC(N)=O)NC(=O)[C@H](Cc2ccc(O)cc2)NC(=O)[C@H](CCCCN)NC(=O)[C@@H]2CCCN2C(=O)[C@H](Cc2c[nH]cn2)NC1=O [PADI4_3_H4(2), yRD(2)HYRHPKYCG] ({CH2CO}-[dY]RD[Orn(fluoroacetimidoyl)]HYRHPKYCG-NH2; thioether N-12)", "result.units": "nM", "Ki": 1100}

====

# tested.on: PADI4 (Homo sapiens)
# Construct: His6; made in house
# experiment.description: COLDER inhibition assay, BAEE substrate, with or without 1 h preincubation
# Type: biochemical
# condition: peptide 0.003 µM, T=1; read-out: PADI4 activity normalised to 0.1% DMSO
Where a SMILES comes first, the peptide text is derived from it. Bridges are numbered along the chain shown (N, C = ends). [ ]: non-standard residue; d: D form. Orn(fluoroacetimidoyl) = N=C(CF)NCCC[C@H](N)C(=O)O

{"molecule": "N=C(N)NCCC[C@@H]1NC(=O)[C@H](Cc2ccc(O)cc2)NC(=O)[C@H](Cc2c[nH]cn2)NC(=O)[C@H](CCCNC(=N)CF)NC(=O)[C@H](CC(=O)O)NC(=O)[C@H](CCCNC(=N)N)NC(=O)[C@@H](Cc2ccc(O)cc2)NC(=O)CSC[C@@H](C(=O)NCC(N)=O)NC(=O)[C@H](Cc2ccc(O)cc2)NC(=O)[C@H](CCCCN)NC(=O)[C@@H]2CCCN2C(=O)[C@H](Cc2c[nH]cn2)NC1=O [PADI4_3_H4(2), yRD(2)HYRHPKYCG] ({CH2CO}-[dY]RD[Orn(fluoroacetimidoyl)]HYRHPKYCG-NH2; thioether N-12)", "remaining activity at 0.003 µM / %": 102}

====

# tested.on: PADI4 (Homo sapiens, UniProt Q9UM07)
# Construct: His6; made in house
# experiment.description: COLDER inhibition assay, BAEE substrate, with or without 1 h preincubation
# Format: biochemical
# condition: peptide 0.03 µM, T=0; read-out: PADI4 activity normalised to 0.1% DMSO
Where a SMILES comes first, the peptide text is derived from it. Bridges are numbered along the chain shown (N, C = ends). [ ]: non-standard residue; d: D form. Orn(fluoroacetimidoyl) = N=C(CF)NCCC[C@H](N)C(=O)O
value.type: remaining activity at 0.03 µM (%)

{"compound": "CC(C)C[C@@H]1NC(=O)[C@H](CCCCN)NC(=O)[C@H](CO)NC(=O)[C@H](CO)NC(=O)[C@H](Cc2ccc(O)cc2)NC(=O)[C@H](Cc2c[nH]cn2)NC(=O)[C@H](CCCNC(=N)CF)NC(=O)[C@H](CC(=O)O)NC(=O)[C@H](CC(C)C)NC(=O)[C@@H](Cc2ccc(O)cc2)NC(=O)CSC[C@@H](C(=O)NCC(N)=O)NC(=O)[C@H](Cc2ccc(O)cc2)NC1=O [cP4_15, yLD(2)HYSSKLYCG] ({CH2CO}-[dY]LD[Orn(fluoroacetimidoyl)]HYSSKLYCG-NH2; thioether N-12)", "tested.on": "PADI4 (Homo sapiens, UniProt Q9UM07)", "result.units": "%", "endpoint.result": 95.8}
